The following molecules have recorded IC50 on Amine oxidase [flavin-containing] A (Homo sapiens, UniProt P21397).
Sequence (P21397 whole entry): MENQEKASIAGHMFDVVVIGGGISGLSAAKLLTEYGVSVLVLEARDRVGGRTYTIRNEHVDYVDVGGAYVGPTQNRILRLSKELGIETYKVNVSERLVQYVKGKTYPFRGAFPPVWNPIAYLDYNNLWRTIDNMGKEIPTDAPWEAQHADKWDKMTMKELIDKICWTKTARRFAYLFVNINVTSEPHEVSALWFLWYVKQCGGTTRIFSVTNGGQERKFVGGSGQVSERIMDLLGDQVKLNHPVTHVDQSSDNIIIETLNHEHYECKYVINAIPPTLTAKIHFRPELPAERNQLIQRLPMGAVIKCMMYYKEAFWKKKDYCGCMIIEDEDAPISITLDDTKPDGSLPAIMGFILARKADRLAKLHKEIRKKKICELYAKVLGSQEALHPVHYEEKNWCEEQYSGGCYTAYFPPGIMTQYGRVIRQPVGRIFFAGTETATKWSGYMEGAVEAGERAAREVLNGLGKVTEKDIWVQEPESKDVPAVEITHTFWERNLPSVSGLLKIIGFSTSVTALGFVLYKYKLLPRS
READOUT_TYPE: IC50

SMILES_DATA: N[C@H]1C[C@@H]1c1cccc(NC(=O)c2ccccc2)c1
TARGET: Amine oxidase [flavin-containing] A (Homo sapiens, UniProt P21397)
READOUT_TYPE: IC50
RESULT: 1370 nM
--
SMILES_DATA: N[C@H]1C[C@H]1c1cccc(NC(=O)c2ccccc2)c1
TARGET: Amine oxidase [flavin-containing] A (Homo sapiens, UniProt P21397)
READOUT_TYPE: IC50
RESULT: 70 nM
--
SMILES_DATA: N[C@@H]1C[C@@H]1c1cccc(NC(=O)c2ccccc2)c1
TARGET: Amine oxidase [flavin-containing] A (Homo sapiens, UniProt P21397)
READOUT_TYPE: IC50
RESULT: 650 nM
--
SMILES_DATA: N[C@@H]1C[C@H]1c1cccc(NC(=O)c2ccccc2)c1
TARGET: Amine oxidase [flavin-containing] A (Homo sapiens, UniProt P21397)
READOUT_TYPE: IC50
RESULT: 1540 nM
